experiment: NCI Yeast Anticancer Drug Screen. Data for the cln2 rad14 strain (AID 165);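 also: 0% = growth equal to vehicle treated cultures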
condition_notes: S. cerevisiae cln2 rad14 strain, at 50.0 µM, active compounds read high
Compounds without any hit were thinned out: in the full panel of roughly 79,000, 15% have a hit.
Assign class by growth inhibition: not lower than 70% means 1.0; lower than 70% means 0.0.

[[record]]
molecule = "C[C@H](CCC(=O)O)[C@H]1CC[C@H]2[C@@H]3CC[C@@H]4C[C@H](O)CC[C@]4(C)[C@H]3C[C@H](O)[C@]12C"
label_value = 1.0

[[record]]
molecule = "[O-]c1c(-c2cccc3ccccc23)sc(-c2cccc3ccccc23)[n+]1-c1ccccc1"
label_value = 0.0

[[record]]
molecule = "Cc1cc2nc3n(c2cc1C)C(c1c(F)cccc1F)SC3 (stereo unspecified)"
label_value = 0.0

[[record]]
molecule = "Fc1ccc(NC(=S)SCc2ccccc2)cc1F"
label_value = 1.0

[[record]]
molecule = "COC(=O)c1cc(/C=C/c2ccccc2)on1"
label_value = 1.0

[[record]]
molecule = "CC1(C)C2CCC(C2)C1OC(=O)c1ccccc1C(=O)O (stereo unspecified)"
label_value = 1.0

[[record]]
molecule = "OC(CN1CCCCC1)c1ccc2c(ccc3ccccc32)c1 (stereo unspecified)"
label_value = 1.0

[[record]]
molecule = "O=S(=O)(O)c1ccc2c(c1)C1C(C3C2C2(Cl)C(Cl)=C(Cl)C3(Cl)C2(Cl)Cl)C2(Cl)C(Cl)=C(Cl)C1(Cl)C2(Cl)Cl (stereo unspecified)"
label_value = 1.0

[[record]]
molecule = "C/C(=C/C(=O)/C=C/c1ccccc1)c1c(C)[nH]c2ccccc12"
label_value = 0.0

[[record]]
molecule = "Brc1ccc2[nH]c3ccccc3c2c1"
label_value = 0.0


----------
experiment: NCI Yeast Anticancer Drug Screen. Data for the cln2 rad14 strain (AID 165);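 also: 0% = growth equal to vehicle treated cultures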
condition_notes: S. cerevisiae cln2 rad14 strain, at 5.0 µM (retest, dose inferred, filed as 0.5), active compounds read high
Experimental: Growth inhibition of yeast strains with defined genetic alterations is measured as a screen for potential anti-cancer activity. Selected strains with alterations in DNA damage repair or cell cycle control were exposed to compounds and growth inhibition was measured relative to vehicle treated controls. The strain used in this assay is cln2 rad14
This is part of a sample that, as a whole, favours compounds with a hit. Of some 79,000 tested, about 15% had one in any assay.
measured_quantity: growth inhibition (%)

[[record]]
compound = "N#CC#Cc1cccc(C#CC#N)c1"
measured_value = 99

[[record]]
compound = "Cc1ccc(C(c2ccc(N(C)C)cc2)c2ccc(N(C)C)cc2)cc1"
measured_value = 78

[[record]]
compound = "COc1ccc(OP2(Oc3ccc(OC)cc3)=NP(Oc3ccc(OC)cc3)(Oc3ccc(OC)cc3)=NP(Oc3ccc(OC)cc3)(Oc3ccc(OC)cc3)=NP(Oc3ccc(OC)cc3)(Oc3ccc(OC)cc3)=N2)cc1"
measured_value = 0

[[record]]
compound = "COc1ccc(NCCN(C)C)c2c(=O)c3ccccc3sc12"
measured_value = -3

[[record]]
compound = "CCCCCCCCCCCCCCCCCC[N+]1(C)CCC[N+](C)(CCCCCCCCCCCCCCCCCC)CC1 (configuration not stated)"
measured_value = 0

[[record]]
compound = "O=C1c2cccc3cc4ccccc4c(c23)C(=O)N1CCCNCCNCCCN1C(=O)c2cccc3cc4ccccc4c(c23)C1=O"
measured_value = 83

[[record]]
compound = "COCc1ccc([N+](=O)[O-])o1"
measured_value = 6

[[record]]
compound = "COC(=O)[C@@H](O)[C@]1(C(=O)OC)C2O[C@@H](OC)[C@@H]1CCCCCC[C@H]2O"
measured_value = 17

[[record]]
compound = "Oc1ccc2cc(Br)ccc2c1O"
measured_value = -24

[[record]]
compound = "COc1ccc(/C=C(\\C(=O)c2ccc(O)cc2)c2ccccc2)cc1OC"
measured_value = -5

[[record]]
compound = "CSC(=S)n1nc(-c2cccs2)c(N=Nc2ccc(Cl)cc2)c1C(F)(F)F"
measured_value = 14

[[record]]
compound = "CCCCCCCCc1ccc2c3ccccc3c3ccccc3c2c1"
measured_value = -1

[[record]]
compound = "CN(C)CC(CN(C)C)C(=O)c1ccc(Oc2ccc(Cl)cc2)cc1"
measured_value = 36

[[record]]
compound = "Cc1cccc(N=Nc2ccc(O)cc2)c1"
measured_value = -71

[[record]]
compound = "COc1ccc2ccc3c(c2c1)CCC(C(=O)O)C3CC(=O)O (configuration not stated)"
measured_value = 0

[[record]]
compound = "Nc1ccc(CCCCCc2ccc(N)cc2)cc1"
measured_value = 1

[[record]]
compound = "COC(=O)c1nc(Cl)nc(Cl)c1N"
measured_value = -3

[[record]]
compound = "O=C1CSC(c2ccc([N+](=O)[O-])cc2)N1c1ccc(-c2ccc(-n3c(-c4ccccc4)nc4ccccc4c3=O)cc2)cc1 (configuration not stated)"
measured_value = 31

[[record]]
compound = "Cc1ccc(/[N+]([O-])=C/c2ccccc2)cc1"
measured_value = -46

[[record]]
compound = "CCCCC(CCc1ccccc1[N+](=O)[O-])(C(C)=O)C(=O)OCC (configuration not stated)"
measured_value = 1

[[record]]
compound = "CC(=O)Oc1cccc2c(OC(C)=O)cccc12"
measured_value = -8

[[record]]
compound = "Cc1ccccc1C(=O)C(C)c1ccccc1 (configuration not stated)"
measured_value = -35


----------
experiment: NCI Yeast Anticancer Drug Screen. Data for the mlh1 rad18 strain (AID 175)
condition_notes: S. cerevisiae mlh1 rad18 strain growth inhibition; at 50.0 µM (retest, dose inferred, filed as 5.0); active compounds read high
About 79,000 compounds went through this panel and 15% of them were active in at least one assay; those are over-represented in the sample as a whole.
measured_quantity: growth inhibition (%)

[[record]]
molecule = "O=C([O][Sb]([O]C(=O)C(Cl)(Cl)Cl)([c]1ccccc1)([c]1ccccc1)[c]1ccccc1)C(Cl)(Cl)Cl"
units = "%"
measured_value = 79

[[record]]
molecule = "c1ccc2nc3ccccc3nc2c1"
units = "%"
measured_value = 65

[[record]]
molecule = "O=C1C(Cl)=C(Nc2cc(Cl)ccc2Cl)C(=O)c2ccccc21"
units = "%"
measured_value = 98

[[record]]
molecule = "CCOC(=O)C1(C#N)C(=O)CSC1=Nc1ccccc1Cl (configuration not stated)"
units = "%"
measured_value = -54

[[record]]
molecule = "COC(=O)c1cc(-c2ccc([N+](=O)[O-])cc2)c2c(=O)n(-c3ccccc3)[nH]c2n1"
units = "%"
measured_value = 86

[[record]]
molecule = "FC(F)(F)c1ccc(Nc2ccc(C(F)(F)F)cc2)cc1"
units = "%"
measured_value = 100

[[record]]
molecule = "O=C(Nc1cccc(C(F)(F)F)c1)O/N=C(/Cl)CCl"
units = "%"
measured_value = 100

[[record]]
molecule = "COc1cccc(C2c3cc4c(cc3OC(N3CCCC3)C2C)OCO4)c1 (configuration not stated)"
units = "%"
measured_value = 72

[[record]]
molecule = "CN(C)/N=N/c1nc(Cc2ccccc2)[nH]c1C(N)=O"
units = "%"
measured_value = 99

[[record]]
molecule = "O=Cc1ccc2ccc3ccccc3c2c1"
units = "%"
measured_value = 93

[[record]]
molecule = "O=C(CC(=O)c1ccccc1)CC(=O)c1ccccc1Br"
units = "%"
measured_value = 96

[[record]]
molecule = "CC(C)(C)C(=O)OC(N)/C=C/c1ccccc1 (configuration not stated)"
units = "%"
measured_value = 24


----------
experiment: NCI Yeast Anticancer Drug Screen. Data for the bub3 strain (AID 167)
condition_notes: S. cerevisiae bub3 mutant strain, at 50.0 µM (retest, dose inferred, filed as 5.0), active compounds read high
This is part of a sample that, as a whole, favours compounds with a hit. Of some 79,000 tested, about 15% had one in any assay.
measured_quantity: growth inhibition (%)

[[record]]
compound = "C=C1C(=O)OC(CCCCCCCCCCCCC)C1C(=O)O (stereo unspecified)"
measured_value = 90

[[record]]
compound = "COc1ccc(C23OCCN2C(=O)c2ccccc23)cc1 (stereo unspecified)"
measured_value = -2

[[record]]
compound = "C=C(CN(C)C)C(=O)c1ccc(OC2OC(COC(C)=O)C(OC(C)=O)C(OC(C)=O)C2OC(C)=O)cc1 (stereo unspecified)"
measured_value = 4

[[record]]
compound = "COC(=O)C1(Cc2ccc(C)cc2)Cc2c(C)cccc2C1=O (stereo unspecified)"
measured_value = 71

[[record]]
compound = "CCCCCN(CCCCC)CCNc1ccc(C)c2sc3ccccc3c(=O)c12"
measured_value = 97

[[record]]
compound = "C[n+]1c(/C=C\\c2ccccc2)sc2ccccc21"
measured_value = 86

[[record]]
compound = "CCOC(=O)c1cc(Cc2ccccc2)c(=O)n(C)c1-c1ccccc1"
measured_value = 84

[[record]]
compound = "Cc1ccc(Cc2n[nH]c(=O)n2N2C(=O)c3ccccc3C2=O)cc1"
measured_value = 13

[[record]]
compound = "O=[N+]([O-])c1cc(Cc2cc([N+](=O)[O-])c3cccnc3c2O)c(O)c2ncccc12"
measured_value = 98

[[record]]
compound = "O=C(CC(=O)c1ccccc1NC1=Cc2ccccc2C(=O)C1=O)C(=O)NC1=C(Cl)C(=O)c2ccccc2C1=O"
measured_value = 94

[[record]]
compound = "CCCCCCCCCCCCOC(=O)C[n+]1cccc(C(N)=O)c1"
measured_value = 99

[[record]]
compound = "COc1ccc(C(=O)Nc2ccccc2[N+](=O)[O-])cc1"
measured_value = 13

[[record]]
compound = "Cc1c2c(c(C)c3c1sc1ccccc13)CCN=C2"
measured_value = 98

[[record]]
compound = "CN(Cc1ccccc1)CC(O)c1cc(-c2ccc(Cl)cc2)nc2ccccc12 (stereo unspecified)"
measured_value = 99

[[record]]
compound = "O=C1C(Br)=C(C2CCCCC2)C(=O)c2ccccc21"
measured_value = 100

[[record]]
compound = "CCCCc1ccc2nccc(N/N=C/c3ccc(OC)c4ccccc34)c2c1"
measured_value = 90

[[record]]
compound = "COc1cc[c]([Sn]([O][Sn]([Cl])([c]2ccc(OC)cc2)[c]2ccc(OC)cc2)[c]2ccc(OC)cc2)cc1"
measured_value = 96

[[record]]
compound = "Cc1cccc2c1C(=O)N(CC[P+](c1ccccc1)(c1ccccc1)c1ccccc1)C2=O"
measured_value = 95

[[record]]
compound = "COC(=O)c1cc(/C=C/c2ccccc2)on1"
measured_value = 14

[[record]]
compound = "O=C(O)c1cccc2c1Oc1c(cccc1C(=O)O)S2"
measured_value = 1

[[record]]
compound = "COC1/C=C\\C=C(/C)C(=O)NC2=CC(=O)C(N)=C(CC(C)CC(OC)C(O)C(C)C=C(C)C1OC(N)=O)C2=O (stereo unspecified)"
measured_value = 93

